- System: SW-620 colon
- Experimental protocol: NCI tumour cell line growth inhibition, 48 h
Recorded GI50 by entry

Examples from the recorded data:
{"columns": ["Compound", "Quantity kind", "Result"],
 "data": [
  ["CC(=O)N1N=C(c2ccc(Nc3ccnc4cc(Cl)ccc34)cc2)CC1c1ccc(Cl)cc1 (stereo not given)", "GI50", "> 100 µM"],
  ["COc1cc2c(cc1OC)C(Sc1ccc(SC)cc1)c1c(nc(N)c(C#N)c1N)O2 (stereo not given)", "GI50", "1.92 µM"],
  ["O=C(O)c1cn(C2CC2)c2cc(N3CCN(C(=O)Nc4nc(-c5ccccc5)cs4)CC3)c(F)cc2c1=O", "GI50", "3.2 µM"],
  ["Nc1nc(N)c(C=Nc2ccc(Br)cc2)c(Nc2ccc(Br)cc2)n1", "GI50", "14.1 µM"]
]}

### Prompt What GI50 appears in the records for this compound with SW-620 colon? `Brc1ccc2[nH]cc(-c3nc(-c4c[nH]c5ncccc45)cs3)c2c1`
### Response 3.79 µM

---

- Test system: DMS 273 small cell lung
- Experimental protocol: NCI tumour cell line growth inhibition, 48 h
Recorded TGI by entry

{"columns": ["Compound", "TGI"],
 "data": [
  ["CN(C)C(=Nc1nc(=[N+](C)C)ss1)N(C)C", "> 100 µM"],
  ["N#CC1CCCCOCCOCCOCCOCCOCCCCCC1=O (stereo unspecified)", "> 100 µM"],
  ["CC(=O)NC1C(OCc2ccccc2)OC(CO)C(O)C1OC(C)C(=O)N[C@@H](C)C(=O)N[C@H](CCC(=O)OCCNc1c2ccccc2nc2cccc([N+](=O)[O-])c12)C(N)=O (stereo partly specified)", "0.00433 µM"],
  ["O=C(NCCO)c1ccc([N+](=O)[O-])cc1", "> 100 µM"],
  ["S=c1nc(COc2ccc(Cl)cc2Cl)[nH][nH]1", "> 100 µM"],
  ["C[N+](C)(C)CC1CCC/C1=N/O (stereo unspecified)", "> 100 µM"]
]}

### Prompt Can you share its TGI? I mean this compound: `O=C1C=CC(=C(c2ccc(O)cc2)c2ccc(O)cc2)C=C1`
### Response 19.9 µM

### Prompt Can you share its TGI? I mean this compound: CCCC(C)n1c(C)nc2c1C(=O)c1ccccc1C2=O (stereo unspecified)
### Response 30.8 µM

### Prompt Can you share its TGI? I mean this compound: O=C1NC(=O)C(=Nc2cccc3c(=O)[nH][nH]c(=O)c23)C(c2nc3ccccc3s2)C1=O (stereo unspecified)
### Response > 100 µM

### Prompt Can you share its TGI? I mean this compound: `C#CC[N+](C)(CC#C)CC#C`
### Response > 100 µM

### Prompt Can you share its TGI? I mean this compound: COC(=O)C1=C(c2ccc(OC)c(OC)c2)OC(c2cc(OC)c(OC)c(OC)c2)C1 (stereo unspecified)
### Response > 100 µM

---

- System: K-562 leukemia
- Experimental protocol: NCI tumour cell line growth inhibition, 48 h; in the data active = GI50 below about 0.43 µM; inactive = the rest
Please state which outcome applies, choosing from class 1 = active, class 0 = inactive

Below, 5 compounds whose answers are already recorded.
{"columns": ["Compound", "Class assignment"],
 "data": [
  ["Nc1cc(O)ccc1N=Nc1ccc(-c2nc3ccccc3[nH]2)cc1", "class 0"],
  ["CCCCCCNC(=O)Oc1ccc(/C(=C(/C)Cc2ccc(OC)cc2)c2ccc(OCCCN(C)C)cc2)cc1", "class 0"],
  ["CCOc1cc(Br)c(C(C)NC(=O)c2cccc(OC)c2)cc1OCC (stereo not given)", "class 0"],
  ["CCN(Cc1ccc(F)cc1)c1ccc(CO)c(C)c1", "class 0"],
  ["N#Cc1c(Br)n(C2OC(CO)C(O)C2O)c2ncnc(N)c12 (stereo not given)", "class 0"]
]}

Next compound, please.
### Prompt Outcome? `COc1ccc2c(C3(c4cn(C)c5cc(OC)ccc45)C(=O)Nc4ccc(Cl)cc43)cn(C)c2c1`
### Response class 0
